# METHOD NOTES: physchem
METRIC: pKa

Q: Kindly indicate its recorded pKa. Item: `O=[N+]([O-])c1ccccc1O`
A: 6.7
